Molecular target: UniProt P56817
Test: Inhibition of BACE1 (unknown origin) by cell-based assay
result.type: EC50 (nM)
Provide the reading as a plain figure in nM.

Request: Record lookup: for UniProt P56817, what EC50 belongs to CSC[C@H](NC(=O)C1=NO[C@@H]2OCC[C@H]12)C(=O)N[C@@H](CC(C)C)[C@@H](O)C[C@@H](C)C(=O)N[C@H](C(=O)NCC(C)C)C(C)C ?
Result: 343

----------
log10 Ki values by entry
Target: Beta-secretase 1 (Homo sapiens, UniProt P56817)
Sequence (P56817 whole entry): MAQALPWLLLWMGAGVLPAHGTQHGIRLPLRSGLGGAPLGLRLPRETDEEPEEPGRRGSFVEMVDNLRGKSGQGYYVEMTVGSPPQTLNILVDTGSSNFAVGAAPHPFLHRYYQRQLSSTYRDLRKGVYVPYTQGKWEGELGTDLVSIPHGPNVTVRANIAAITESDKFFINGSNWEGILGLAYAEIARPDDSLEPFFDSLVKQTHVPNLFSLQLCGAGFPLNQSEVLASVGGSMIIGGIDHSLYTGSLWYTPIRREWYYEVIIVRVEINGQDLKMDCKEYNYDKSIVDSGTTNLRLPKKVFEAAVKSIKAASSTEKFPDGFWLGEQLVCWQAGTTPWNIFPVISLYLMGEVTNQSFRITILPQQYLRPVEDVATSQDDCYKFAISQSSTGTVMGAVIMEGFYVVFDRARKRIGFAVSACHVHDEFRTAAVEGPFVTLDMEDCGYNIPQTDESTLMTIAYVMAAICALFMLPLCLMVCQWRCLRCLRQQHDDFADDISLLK
Test: Inhibition of recombinant BACE1 (unknown origin) using fluorogenic substrate
Kindly note that the scale is log10 and the underlying Ki is in nM.

Here is how some molecules turned out for log10 Ki.
1) CC(C)CNC(=O)[C@@H](NC(=O)[C@H](C)C[C@H](O)[C@H](CC(C)C)NC(=O)[C@H](CS(C)(=O)=O)NC(=O)C1=NO[C@@H]2OCCC[C@H]12)C(C)C : 1.45
2) CSC[C@H](NC(=O)C1=NO[C@H]2OCC[C@@H]12)C(=O)N[C@@H](CC(C)C)[C@@H](O)C[C@@H](C)C(=O)N[C@H](C(=O)NCC(C)C)C(C)C : 2.74
3) CC(C)CNC(=O)[C@@H](NC(=O)[C@H](C)C[C@H](O)[C@H](CC(C)C)NC(=O)[C@H](CS(C)(=O)=O)NC(=O)C1=NO[C@H]2OCCC[C@@H]12)C(C)C : 2.80
4) COc1cccc(CNC[C@@H](O)[C@H](Cc2ccccc2)NC(=O)[C@H](CS(C)(=O)=O)NC(=O)C2=NO[C@H]3OCC[C@@H]23)c1 : 4.46

Request: Would you mind telling me what log10 Ki value was observed for CC(C)CNC(=O)[C@@H](NC(=O)[C@H](C)C[C@H](O)[C@H](CC(C)C)NC(=O)[C@H](CS(C)(=O)=O)NC(=O)C1=NO[C@@H]2OCC[C@H]12)C(C)C ?
Result: 2.04
